target: pY705-STAT3 in PBMC (Homo sapiens); construct: Cryopreserved Peripheral Blood Mononuclear Cells (PBMC) are from AllCells; host or cells: cryopreserved PBMC; experiment: MSD-pSTAT-PBMC Assay (pSTAT3, IL-6 stimulated); type: cell-based; conditions: PBMC, compound 3 hrs, then 10 ng/mL IL-6 for 10 min; Table 115; read-out: STAT3
Sequence (P40763 whole entry): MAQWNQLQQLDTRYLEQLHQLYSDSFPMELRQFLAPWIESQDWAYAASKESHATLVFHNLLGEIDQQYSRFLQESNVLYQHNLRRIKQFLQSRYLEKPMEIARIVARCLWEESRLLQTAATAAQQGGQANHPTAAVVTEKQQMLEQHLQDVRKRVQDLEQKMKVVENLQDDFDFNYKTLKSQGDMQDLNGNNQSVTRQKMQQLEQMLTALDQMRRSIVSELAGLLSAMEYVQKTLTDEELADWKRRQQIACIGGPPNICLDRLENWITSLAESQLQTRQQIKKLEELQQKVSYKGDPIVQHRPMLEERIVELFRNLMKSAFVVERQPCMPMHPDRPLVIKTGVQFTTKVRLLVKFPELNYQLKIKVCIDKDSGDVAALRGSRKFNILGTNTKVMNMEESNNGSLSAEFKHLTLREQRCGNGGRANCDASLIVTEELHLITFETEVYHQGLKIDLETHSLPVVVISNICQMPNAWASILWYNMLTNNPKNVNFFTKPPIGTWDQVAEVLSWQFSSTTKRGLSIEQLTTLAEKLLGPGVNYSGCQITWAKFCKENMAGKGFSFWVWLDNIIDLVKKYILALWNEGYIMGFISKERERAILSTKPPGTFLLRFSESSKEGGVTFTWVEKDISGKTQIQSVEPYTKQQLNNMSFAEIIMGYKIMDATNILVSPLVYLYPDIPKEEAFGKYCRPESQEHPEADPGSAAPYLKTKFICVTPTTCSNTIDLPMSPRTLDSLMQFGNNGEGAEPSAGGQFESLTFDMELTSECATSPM

Compound: CCOC(=O)[C@H](CC)NP(=O)(Cc1ccc2sc(C(=O)N[C@H]3CCC[C@H]4CC[C@@H](C(=O)N5CC(c6cccnc6)C5)N4C3=O)cc2c1)Oc1ccccc1 (some centres unmarked)
IC50: 100 to 1000 nM
--
Compound: CCCOC(=O)CC(C)NP(=O)(Cc1ccc2sc(C(=O)N[C@H]3CCC[C@H]4CC[C@@H](C(=O)N5CC(c6cccnc6)C5)N4C3=O)cc2c1)Oc1ccccc1 (some centres unmarked)
IC50: > 3000 nM
--
Compound: CCCOC(=O)[C@H](C)N[P@](=O)(Oc1ccccc1)[C@@H](F)c1ccc2sc(C(=O)N[C@H]3CCC[C@H]4CC[C@@H](C(=O)N5CC(c6cccnc6)C5)N4C3=O)cc2c1 (single isomer, unassigned)
IC50: < 100 nM
--
Compound: CCCOC(=O)[C@H](C)NP(=O)(Oc1ccccc1)C(F)c1ccc2sc(C(=O)N[C@H]3CCC[C@H]4CC[C@@H](C(=O)N5CC(c6cncnc6N(C)C)C5)N4C3=O)cc2c1 (some centres unmarked)
IC50: < 100 nM
--
Compound: CCCOC(=O)[C@H](C)N[P@](=O)(Oc1ccccc1)[C@@H](F)c1ccc2sc(C(=O)N[C@H]3CCC[C@H]4CC[C@@H](C(=O)N5CC(c6cnccc6C)C5)N4C3=O)cc2c1 (single isomer, unassigned)
IC50: < 100 nM
